Target: MAGL (Mus musculus)
Construct: from tissue; host or cells: brain of wild-type C57Bl/6J mice
Sequence (O35678 1-303): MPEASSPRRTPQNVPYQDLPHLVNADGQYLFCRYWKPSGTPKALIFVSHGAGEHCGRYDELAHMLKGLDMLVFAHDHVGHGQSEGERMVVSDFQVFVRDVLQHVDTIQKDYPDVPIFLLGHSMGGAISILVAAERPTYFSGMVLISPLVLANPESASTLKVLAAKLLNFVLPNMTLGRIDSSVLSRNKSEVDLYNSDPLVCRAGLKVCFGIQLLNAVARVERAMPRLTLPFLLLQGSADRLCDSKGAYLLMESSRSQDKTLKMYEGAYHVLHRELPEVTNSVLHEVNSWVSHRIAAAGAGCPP
Assay: Mouse brain proteomes from inhibitor treated mice (oral gavage, brain proteomes analyzed 4 h after administration)
Type: in vivo, mouse (C57Bl/6J)
Conditions: brain proteome 4 h after administration, read-out: % Inh 5 mg/kg MGLL (Mouse)
readout-kind: inhibition at 5 mg/kg

Consider the following illustrative entries.
CN(Cc1ccc(C(F)(F)F)cc1N1CCCC1)C1(C)CCN(C(=O)OC(C(F)(F)F)C(F)(F)F)CC1 = ≥ 75%
CC(=O)N1CC2(CCN(c3ccccc3CN3CCN(C(=O)OC(C(F)(F)F)C(F)(F)F)CC3)C2)C1 = ≥ 75%
CC1(C(=O)O)CCCN(c2cc(CN3CC4(CCN(C(=O)OC(C(F)(F)F)C(F)(F)F)CC4)C3)cc(C(F)(F)F)c2)C1 (stereo not shown) = 25 to 75%

stdin: Entry CCN1CCC2(CCN(c3cc(C(F)(F)F)ccc3CN3CCN(C(=O)OC(C(F)(F)F)C(F)(F)F)CC3)CC2)C1 has what inhibition at 5 mg/kg?
stdout: ≤ 25%
